Just for reference, patent US20130273029A1 is where these values come from.

# test-target: Human HER3, endogenous, on human cancer cell lines (SK-Br-3, MCF7, BT-474) (human, UniProt P21860 20-1342)
# Sequence (P21860 20-1342): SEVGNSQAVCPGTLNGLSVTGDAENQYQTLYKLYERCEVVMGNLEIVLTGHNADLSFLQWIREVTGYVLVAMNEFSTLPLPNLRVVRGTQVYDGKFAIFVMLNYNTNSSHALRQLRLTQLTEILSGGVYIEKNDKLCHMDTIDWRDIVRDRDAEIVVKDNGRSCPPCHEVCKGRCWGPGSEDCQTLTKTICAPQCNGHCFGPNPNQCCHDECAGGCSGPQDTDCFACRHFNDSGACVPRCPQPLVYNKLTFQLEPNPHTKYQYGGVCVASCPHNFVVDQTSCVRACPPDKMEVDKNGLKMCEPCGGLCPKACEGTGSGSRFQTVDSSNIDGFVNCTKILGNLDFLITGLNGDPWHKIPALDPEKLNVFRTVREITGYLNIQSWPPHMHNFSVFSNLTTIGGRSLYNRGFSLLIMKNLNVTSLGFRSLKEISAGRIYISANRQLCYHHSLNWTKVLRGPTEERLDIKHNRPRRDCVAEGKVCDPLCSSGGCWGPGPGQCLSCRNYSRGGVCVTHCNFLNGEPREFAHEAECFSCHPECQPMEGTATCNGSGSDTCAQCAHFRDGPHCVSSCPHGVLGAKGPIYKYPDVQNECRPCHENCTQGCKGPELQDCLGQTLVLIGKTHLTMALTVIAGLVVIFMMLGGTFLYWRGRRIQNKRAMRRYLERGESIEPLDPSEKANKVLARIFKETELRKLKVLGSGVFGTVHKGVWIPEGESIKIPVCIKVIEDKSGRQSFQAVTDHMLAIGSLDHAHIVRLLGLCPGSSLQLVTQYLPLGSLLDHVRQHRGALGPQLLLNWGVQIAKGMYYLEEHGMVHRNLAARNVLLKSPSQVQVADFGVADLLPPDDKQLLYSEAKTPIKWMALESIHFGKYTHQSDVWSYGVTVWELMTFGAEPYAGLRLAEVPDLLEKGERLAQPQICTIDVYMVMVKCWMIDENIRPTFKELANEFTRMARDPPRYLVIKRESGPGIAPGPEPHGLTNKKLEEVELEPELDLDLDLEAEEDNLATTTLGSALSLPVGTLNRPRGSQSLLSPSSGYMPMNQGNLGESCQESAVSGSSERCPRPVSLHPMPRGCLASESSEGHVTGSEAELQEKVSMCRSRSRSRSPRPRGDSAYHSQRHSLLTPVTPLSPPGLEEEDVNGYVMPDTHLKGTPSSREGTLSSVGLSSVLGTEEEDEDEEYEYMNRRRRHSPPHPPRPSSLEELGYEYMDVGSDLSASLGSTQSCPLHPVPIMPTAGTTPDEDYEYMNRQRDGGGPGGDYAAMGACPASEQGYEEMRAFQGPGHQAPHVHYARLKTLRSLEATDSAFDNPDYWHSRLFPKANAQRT
# assay-remarks: cell-based or functional assay
# key: entry, value: BT474 pHER3 % inhibition
Express it in %; write the number only.

Consider the following illustrative entries.
binder: MOR12923 (antibody, human IgG1, kappa, V domains shown) VH: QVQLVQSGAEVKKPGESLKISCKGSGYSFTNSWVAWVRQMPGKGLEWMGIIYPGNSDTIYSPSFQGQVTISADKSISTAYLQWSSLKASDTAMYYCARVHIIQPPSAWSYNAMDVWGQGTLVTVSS VL: DIQMTQSPSSLSASVGDRVTITCRASQSISTYLNWYQQKPGKAPKLLIFGASNLQSGVPSRFSGSGSGTDFTLTISSLQPEDFATYYCQQSMYLPFTFGQGTKVEIKR
BT474 pHER3 % inhibition (%): 61
--
binder: MOR13765 (antibody, human IgG1, kappa, V domains shown, tested as IgG) VH: QVQLVQSGAEVKKPGESLKISCKGSGYSFTGSWVAWVRQMPGKGLEWMGIIYPGTSDTIYSPSFQGQVTISADKSISTAYLQWSSLKASDTAMYYCARVHIIQPPSAWSYNAMDVWGQGTLVTVSS VL: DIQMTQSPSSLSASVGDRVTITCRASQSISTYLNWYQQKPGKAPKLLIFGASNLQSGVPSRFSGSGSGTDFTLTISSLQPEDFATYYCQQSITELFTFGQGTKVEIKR
BT474 pHER3 % inhibition (%): 61

// below: BT474 pHER3 % inhibition requested for another binder
Reported BT474 pHER3 % inhibition for MOR13767 (antibody, human IgG1, kappa, V domains shown, tested as IgG) VH: QVQLVQSGAEVKKPGESLKISCKGSGYSFTTSWVAWVRQMPGKGLEWMGIIYPGQSDTIYSPSFQGQVTISADKSISTAYLQWSSLKASDTAMYYCARVHIIQPPSAWSYNAMDVWGQGTLVTVSS VL: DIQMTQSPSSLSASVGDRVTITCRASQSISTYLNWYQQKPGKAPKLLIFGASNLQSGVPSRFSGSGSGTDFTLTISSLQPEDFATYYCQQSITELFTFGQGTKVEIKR was 61
